Entry source: PubChem BioAssay AID1159580

- assay: chemical genetic growth profiling, strain panel (AID 1159580);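 note: tested at 20 µM; growth read once vehicle control cultures reached saturation at 30 °C; 1 = growth at the plate median or of vehicle wells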
- assaySetup: S. cerevisiae deletion strains, growth OD, locus YPL204W, strain HRR25, stronger effect = lower value
The whole screen tested about 5,500 compounds, of which about 2,000 (36%) were called active. Another 18% or so got no clear call; they are omitted. Some of the results follow.
quantity: normalized growth

>>> valuemeasured("CCOC(=O)C1=C(N)OC2=C(C(=O)CC(C)(C)C2)C1c1ccc(Cl)cc1Cl (configuration not stated)")
0.933
>>> valuemeasured("O=[N+]([O-])/C=C/c1ccsc1")
0.0984
>>> valuemeasured("CSc1cc(-c2ccncc2)nc(-c2cccs2)c1")
0.951
>>> valuemeasured("O=C1CSC(c2cccnc2)N1c1ccc(Cl)cc1Cl (configuration not stated)")
0.92
>>> valuemeasured("COC(=O)C1=C(C)NC(C)=C(C(=O)OC)C1c1ccc(Cl)cc1Cl")
0.898
>>> valuemeasured("CCOc1ccc(/C=C(\\C)[N+](=O)[O-])cc1OC")
0.431
>>> valuemeasured("FC(F)(F)c1cccc(NC(=S)Nc2ccccc2)c1")
0.934
>>> valuemeasured("Fc1cccc(F)c1NC(=S)Nc1cc(C(F)(F)F)cc(C(F)(F)F)c1")
0.936
>>> valuemeasured("CCCc1c(C(=O)NC2Cc3ccccc3C2)cnn1-c1ccccc1")
0.963
>>> valuemeasured("Cc1cccc(Cl)c1/C=N\\NC(N)=S")
0.877
>>> valuemeasured("CC(C)c1ccc(NC(=S)NC(=O)c2ccccc2)cc1")
0.933
>>> valuemeasured("O=C(NC(=S)Nc1cccc(C(F)(F)F)c1)c1ccc2nonc2c1")
0.936

* * *

- assay: chemical genetic growth profiling, strain panel (AID 1159580);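 note: tested at 20 µM; growth read once vehicle control cultures reached saturation at 30 °C; 1 = growth at the plate median or of vehicle wells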
- assaySetup: S. cerevisiae deletion strains, growth OD, locus YHR030C, strain SLT2
Out of some 5,500 compounds screened, about 2,000 (36%) were called active. Inconclusive results (about 18%) are left out. Cut-off read from the data, not from the text of the source: active = normalized growth mostly below about 0.91 (no sharp cut-off); inconclusive = no clear call, values can overlap the other calls; inactive = mostly above about 0.92. The list shows a part of the results.
Classes used: 1 (active), -1 (inactive)

>>> cat("N#CC(C#N)=C/C=C(/Sc1nc2ccccc2s1)c1ccc(Br)cc1")
1
>>> cat("Oc1c(I)cc(Cl)c2cccnc12")
1
>>> cat("CSC1=NCN(Cc2ccccc2)CN1")
-1
>>> cat("CC(=O)Nc1cc([N+](=O)[O-])ccc1-n1cc(C)c(C(F)(F)F)n1")
-1
>>> cat("CCC[C@H]1CC2=C(C[C@@H](CC)CC3=C1C(=O)OC3=O)C(=O)OC2=O")
-1
>>> cat("CCN(CC)CCNC(C(=O)OCCC(C)C)c1ccccc1 (centres undefined)")
-1
>>> cat("CSc1c(C#N)c(-c2cccs2)nn1C")
1
>>> cat("O=[N+]([O-])c1ccc(SC2=NCCN2)c(Cl)c1")
-1
>>> cat("CC(C)N(C(=O)SCC(Cl)=C(Cl)Cl)C(C)C")
-1
>>> cat("O=C(O)c1ccccc1Nc1ccccc1")
1
>>> cat("CC(=O)OCC1(C)CCC2(C)CCC3(C)C4=CCc5c(cc(OC(C)=O)c(OC(C)=O)c5C)C4(C)CCC3(C)C2C1 (centres undefined)")
-1
>>> cat("Cc1[nH]ncc1-c1ccccc1")
-1
>>> cat("CN1CCN(C=Nc2ncc(C(F)(F)F)cc2Cl)CC1")
-1
>>> cat("CC1C(c2ccccc2)OCCN1CN1C(=O)c2ccccc2C1=O (centres undefined)")
-1
>>> cat("COC(=O)c1cc([N+](=O)[O-])ccc1NC(C)=O")
-1
>>> cat("Cc1ccc(S(=O)(=O)CCSC2=CC(=O)CC(C)(C)S2)cc1")
-1
>>> cat("CCCc1c(C(=O)NC2Cc3ccccc3C2)cnn1-c1ccccc1")
-1
>>> cat("Cc1c2c(=O)[nH]ncc2c(-c2ccccc2)n1-c1ccc([N+](=O)[O-])cc1")
1
>>> cat("COc1cccc(C2C3=C(CC(C)(C)CC3=O)OC3=C2C(=O)CC(C)(C)C3)c1O")
-1
>>> cat("O=C1C=CC2=C3c4cc(O)c(O)cc4C[C@@]3(O)COC2=C1")
-1
>>> cat("O=C(OC1Cc2c(O)cc(O)cc2OC1c1cc(O)c(O)c(O)c1-c1c(C2Oc3cc(O)cc(O)c3CC2OC(=O)c2cc(O)c(O)c(O)c2)cc(O)c(O)c1O)c1cc(O)c(O)c(O)c1 (centres undefined)")
-1
>>> cat("CCCc1c(C(=O)NNc2cccc(Cl)c2)cnn1-c1ccccc1")
-1
>>> cat("CCOC(=O)C1=C(N)OC2=C(C(=O)CC(C)(C)C2)C1c1ccc(Cl)cc1Cl (centres undefined)")
1
>>> cat("C1CNCCN1")
-1
>>> cat("O=C(O)c1cccnc1Nc1cccc(C(F)(F)F)c1")
-1
>>> cat("COC(=O)C1=C(C)NC(C)=C(C(=O)OC)C1c1ccc(Cl)cc1Cl")
-1
>>> cat("COC(=O)Oc1ccccc1C(=O)O")
-1
>>> cat("NC(=O)CCCCC1CCSS1 (centres undefined)")
-1
>>> cat("CCCCNC(=O)NCCSCc1ccco1")
-1
>>> cat("O=C(NCc1ccncc1)c1ccc(-n2cccn2)cc1")
-1
>>> cat("NCCNC(=O)c1ccc(Cl)cc1")
-1
>>> cat("O=C(NCCSCc1cccc(C(F)(F)F)c1)c1ccc(Cl)cc1")
1
>>> cat("O=[N+]([O-])c1ccc2nsnc2c1")
1
>>> cat("CN(/N=C\\c1ccccc1)c1ncc(C(F)(F)F)cc1Cl")
1

* * *

- assay: chemical genetic growth profiling, strain panel (AID 1159580);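 note: tested at 20 µM; growth read once vehicle control cultures reached saturation at 30 °C; 1 = growth at the plate median or of vehicle wells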
- assaySetup: S. cerevisiae deletion strains, growth OD, locus YJL187C, strain SWE1 (second series)
Hit rate of the full screen: of about 5,500 compounds, about 2,000 (36%) were called active. Not shown: some 18% with an inconclusive outcome. No stated cut-off is given here; in the data, active means normalized growth mostly below about 0.91 (no sharp cut-off); inconclusive means no clear call, values can overlap the other calls; inactive means mostly above about 0.92. The list shows a part of the results.
Outcomes: active, inactive

>>> cat("C=CCC1(C(C)CCC)C(=O)N=C(S)NC1=O (stereo unspecified)")
"inactive"
>>> cat("NCCNC(=O)c1ccc(Cl)cc1")
"inactive"
>>> cat("C[C@H](N)[C@H](O)c1ccc(O)c(O)c1")
"inactive"
>>> cat("N[C@@H](Cc1ccc(O)c(O)c1)C(=O)O")
"inactive"
>>> cat("COc1cc2c(c(OC)c1OC)-c1ccc(OC)c(=O)cc1[C@@H](NC(C)=O)CC2")
"inactive"
>>> cat("CCC[C@H]1CC2=C(C[C@@H](CC)CC3=C1C(=O)OC3=O)C(=O)OC2=O")
"inactive"
>>> cat("CCCCC(CC)CN1CN(CC(CC)CCCC)CC(C)(N)C1 (stereo unspecified)")
"active"
>>> cat("C=C(C)[C@H]1CC=C(C(=O)O)CC1")
"inactive"
>>> cat("CCOP(=S)(OCC)SCn1c(=O)oc2cc(Cl)ccc21")
"inactive"
>>> cat("CC1(C)C(=O)C=C[C@@]2(C)C1=C(O)C(=O)[C@]1(C)C2CC[C@@]2(C)[C@H](c3ccoc3)C[C@H]3O[C@]321 (stereo partly specified)")
"active"
>>> cat("CCN(CC)CCOc1ccc2c(c1)C(=O)c1cc(OCCN(CC)CC)ccc1-2")
"inactive"
>>> cat("CCCC(C)C1(CC)C(=O)NC(=O)NC1=O (stereo unspecified)")
"inactive"
>>> cat("C=CC(C)(O)CC/C=C(\\C)CCC=C(C)C (stereo unspecified)")
"inactive"
>>> cat("C1CNCCN1")
"inactive"
>>> cat("CS(=O)(=O)CCCCN=C=S")
"active"
>>> cat("Nc1nc2c(ncn2C2C[C@H](O)[C@@H](CO)O2)c(=O)[nH]1 (stereo partly specified)")
"inactive"
>>> cat("Nc1ncnc2c1ncn2C1C[C@H](O)[C@@H](CO)O1 (stereo partly specified)")
"inactive"
>>> cat("C=C[C@](C)(O)CCC=C(C)C")
"inactive"
>>> cat("NCC(CC(=O)O)c1ccc(Cl)s1 (stereo unspecified)")
"inactive"
>>> cat("NC(=NCCC[C@H](N)C(=O)O)NC(CCC(=O)O)C(=O)O (stereo partly specified)")
"inactive"
>>> cat("C=C[C@@H](C1=CC(=O)C(OC)=C(OC)C1=O)c1ccccc1")
"inactive"
>>> cat("CC(=O)OCC1(C)CCC2(C)CCC3(C)C4=CCc5c(cc(OC(C)=O)c(OC(C)=O)c5C)C4(C)CCC3(C)C2C1 (stereo unspecified)")
"inactive"
>>> cat("CN/C(=C\\[N+](=O)[O-])NCCSCc1ccc(CN(C)C)o1")
"inactive"
>>> cat("O=C(O)c1ccccc1Nc1cccc(C(F)(F)F)c1")
"inactive"
>>> cat("CN1C(CC(=O)c2ccccc2)CCCC1CC(O)c1ccccc1 (stereo unspecified)")
"inactive"
>>> cat("NCCCC[C@H](N[C@@H](CCc1ccccc1)C(=O)O)C(=O)N1CCC[C@H]1C(=O)O")
"inactive"

* * *

- assay: chemical genetic growth profiling, strain panel (AID 1159580);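 note: tested at 20 µM; growth read once vehicle control cultures reached saturation at 30 °C; 1 = growth at the plate median or of vehicle wells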
- assaySetup: S. cerevisiae deletion strains, growth OD, locus YNL209W, strain ssb2, stronger effect = lower value
About 2,000 (36%) of roughly 5,500 compounds were called active. Not shown: some 18% with an inconclusive outcome. Some of the results follow.
quantity: normalized growth

>>> valuemeasured("CCC(Cc1c(I)cc(I)c(N)c1I)C(=O)O (stereo unspecified)")
0.966
>>> valuemeasured("COc1cc2c(c(OC)c1OC)-c1ccc(OC)c(=O)cc1[C@@H](NC(C)=O)CC2")
1
>>> valuemeasured("O=C(O)/C=C/C=C/c1ccccc1")
0.863
>>> valuemeasured("O=C(O[C@@H]1Cc2c(O)cc(O)cc2O[C@@H]1c1cc(O)c(O)c(O)c1-c1c([C@H]2Oc3cc(O)cc(O)c3C[C@H]2O)cc(O)c(O)c1O)c1cc(O)c(O)c(O)c1")
0.822
>>> valuemeasured("CC(=O)Nc1ccc(S(=O)(=O)c2ccc(NC(C)=O)cc2)cc1")
1.01
>>> valuemeasured("O=[N+]([O-])c1cc(O)c(O)c([N+](=O)[O-])c1")
1.02
